Tested on: OVCAR-5 ovarian
measurement_notes: NCI tumour cell line growth inhibition, 48 h; in the data active means GI50 below about 0.43 µM; inactive means the rest
Possible outcomes: T for active, F for inactive

INSERT INTO measurements (compound, assigned_label) VALUES
  ('Oc1ccccc1-n1c(-c2ccccc2)ccc1-c1ccccc1', 'F'),
  ('c1ccc(-c2nc(N3CCNCC3)c3nc(-c4ccccc4)oc3n2)cc1', 'F'),
  ('CCCC[C@@H](COC(=O)N(Cc1cccs1)Cc1cccs1)NC(=O)N[C@@H](CC(=O)OC)c1ccc2c(c1)OCO2', 'F'),
  ('CC(C)(C)CC(C)(C)c1ccc(OCCOCCSC(=N)N)cc1', 'F'),
  ('CN(Cc1cnc2nc(N)nc(N)c2n1)c1ccc(C(=O)NC(CCC(=O)O)C(=O)O)cc1 (centres undefined)', 'F'),
  ('COc1ccc(C(O)c2cc3c(N)c(C(=O)Nc4cccc(Br)c4)sc3nc2C)cc1 (centres undefined)', 'T'),
  ('O=[N+]([O-])c1ccc2c(N=Nc3c(O)ccc4ccccc34)c(O)cc(S(=O)(=O)O)c2c1', 'F'),
  ('COc1ccc(-c2ccc(-c3ccc(C(=N)N)cn3)s2)cc1Cl', 'F'),
  ('COc1ccccc1-n1c(SCc2cc(OC)c(OC)c(OC)c2)nc2ccc(Cl)cc2c1=O', 'F');

---

We begin with a simple list: items and their reported TGI.
System: T-47D breast
measurement_notes: NCI tumour cell line growth inhibition, 48 h
Where a SMILES comes first, the peptide text is derived from it. The star is where a group is joined. Cbz = O=C(OCc1ccccc1)*
measurement_label: TGI

INSERT INTO assay_data (molecule, target_or_system, measurement_label, value_measured) VALUES
  ('COc1ccc(C(O)c2cc3c(N)c(C(=O)Nc4cccc(Br)c4)sc3nc2C)cc1 (stereo not given)', 'T-47D breast', 'TGI', '> 100 µM'),
  ('COc1ccc(NC2=NCCO2)c2ccccc12', 'T-47D breast', 'TGI', '> 10 µM'),
  ('O=[As](O)(O)c1ccc(Cc2ccc([As](=O)(O)O)cc2)cc1', 'T-47D breast', 'TGI', '1.87 µM'),
  ('COc1ccc2c(c1)OC13Oc4cc(OC)ccc4C=C1CCCC3=C2', 'T-47D breast', 'TGI', '> 100 µM'),
  ('C[C@@H]1C(O)CC[C@H](C)C12CC=CC2=O (stereo not given in full)', 'T-47D breast', 'TGI', '> 100 µM'),
  ('COc1ccc2c3c(c(OCCCN(C)C)nc2c1)-c1ccc(Cl)cc1C3=O', 'T-47D breast', 'TGI', '48.3 µM'),
  ('O=C(NCc1ccccc1)c1cnc(Cl)cn1', 'T-47D breast', 'TGI', '> 100 µM'),
  ('CCOC(=O)C(C)NC(=O)C(C)NC(=O)C(C)NC(=O)C(C)NC(=O)C(C)NC(=O)C(C)NC(=O)C(C)NC(=O)OCc1ccccc1 (stereo not given) (Cbz-AAAAAAA-OEt; configuration not given here)', 'T-47D breast', 'TGI', '> 100 µM'),
  ('O=Cc1coc2ccccc2c1=O', 'T-47D breast', 'TGI', '> 100 µM'),
  ('O=C1OC(CN2CCN(c3ccccc3)CC2)CN1C(=S)Nc1ccccc1 (stereo not given)', 'T-47D breast', 'TGI', '> 100 µM');
